Listed below: melting point values for each entry.
endpoint: melting point (°C)

molecule	reading
CC(O)c1cc(Cl)c(NC(=O)N2CCN(c3ccc(NC(=O)CCCc4ccccc4)cc3)CC2)c(Cl)c1 (stereo not shown) [Compound 29]	187.3
O=C(NCc1cccnc1)c1ccc(N2CCN(C(=O)Cc3c(Cl)cccc3Cl)CC2)cc1 [Compound 257]	242.27
COc1ccc(CC(=O)Nc2ccc(N3CCN(C(=O)Oc4c(Cl)cc(CN(C)C)cc4Cl)CC3)cc2)cc1 [Compound 312]	182.46
O=C(CNc1ccc(F)cc1)Nc1ccc(N2CCN(C(=O)Nc3c(Cl)cccc3Cl)CC2)cc1 [Compound 36]	254.2
O=C(NCc1cccc(N2CCCC2)c1)c1ccc(N2CCN(C(=O)Cc3c(Cl)cccc3Cl)CC2)cc1 [Compound 234]	251.1
COc1ccc(CC(=O)Nc2ccc(N3CCN(C(=O)Nc4c(Cl)cc(CN5CCN(S(C)(=O)=O)CC5)cc4Cl)CC3)cc2)cc1 [Compound 268]	224.69
Cc1cc(C)c(NC(=O)N2CCN(c3ccc(NC(=O)CCCc4ccccc4)cc3)CC2)c(C)c1 [Compound 68]	223
O=C(CNCc1ccc(F)cc1)Nc1ccc(N2CCN(C(=O)Nc3c(Cl)cccc3Cl)CC2)cc1 [Compound 35]	169.9
CCOC(=O)CCCC(=O)Nc1ccc(N2CCN(C(=O)Nc3c(Cl)cc(CN4CCCC4)cc3Cl)CC2)cc1 [Compound 322]	208.65
COc1cc(CNC(=O)c2ccc(N3CCN(C(=O)Cc4c(Cl)cccc4Cl)CC3)cc2)cc(OC)c1 [Compound 225]	212.29
Cc1cc(C)c(NC(=O)N2CCN(c3ccc(NC(=O)CCCc4ccccc4)cc3)CC2)c(Br)c1 [Compound 11]	238.7
O=C(CCCc1ccccc1)Nc1ccc(N2CCN(C(=O)Nc3ccccc3Br)CC2)cc1 [Compound 95]	147.4
O=C(CCCc1ccccc1)Nc1ccc(N2CCN(C(=O)Nc3c(F)cc(Br)cc3F)CC2)cc1 [Compound 49]	207.9
O=C(CCCc1ccccc1)Nc1ccc(N2CCN(C(=O)Nc3c(Cl)cc(Br)c4c3CCO4)CC2)cc1 [Compound 46]	223
CC(c1cc(Cl)c(NC(=O)N2CCN(c3ccc(NC(=O)CCCc4ccccc4)cc3)CC2)c(Cl)c1)N(C)C (stereo not shown) [Compound 288]	191.86
O=C(CCCc1ccccc1)Nc1ccc(N2CCN(C(=S)Nc3c(Cl)cccc3Cl)CC2)cc1 [Compound 189]	238.7

----------
Listed below: melting point values for each entry.
endpoint: melting point (°C)

given_smiles	endpoint	reading
C#CCNC(=O)c1ccc(N2CCN(C(=O)Cc3c(Cl)cccc3Cl)CC2)cc1	melting point	247.07
O=C(NCc1ccco1)c1ccc(N2CCN(C(=O)Cc3c(Cl)cccc3Cl)CC2)cc1	melting point	238.35
O=C(CCCc1ccccc1)Nc1ccc(N2CCN(C(=O)Nc3c(Cl)c(Cl)cc(Cl)c3Cl)CC2)cc1	melting point	225.1
O=C(COC(=O)c1ccccc1)Nc1ccc(N2CCN(C(=O)Nc3c(Cl)cc(CN4CCCC4)cc3Cl)CC2)cc1	melting point	243.74

----------
endpoint: melting point (°C)

given_smiles	reading_unit	reading
O=C(CCCc1ccccc1)Nc1ccc(N2CCN(/C=C/C(=O)c3c(Cl)cccc3Cl)CC2)cc1	°C	178.2
CSc1ccccc1NC(=O)N1CCN(c2ccc(NC(=O)CCCc3ccccc3)cc2)CC1	°C	127.1

Provenance of the data: patent US8981094B2
